Provenance of the data: PubChem BioAssay

Experiment: modulators of S6 phosphorylation in cells, primary screen, cell-based, A549, cytoblot, luminescence, serum-stimulated (AID 1158);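 further: serum-stimulated A549 lung adenocarcinoma cells; signal is phosphorylated S6 detected by cytoblot immunostaining with HRP secondary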
Settings: A549 phospho-S6 cytoblot, 5 h, higher = more signal
Use -0.09 as the dividing line for z-score, with the line itself on the met side and lower values as not met.

Some solved entries appear below for comparison.
compound | label
COc1cccc([C@H]2Oc3ccc(OC)cc3C(=NO[C@H](C)c3cn([C@H](CO)Cc4ccccc4)nn3)[C@@H]2O)c1 | not met
COC(=O)[C@@H]1CC[C@H](C)[C@@H](c2ccc(C)cc2)N1C(=O)c1ccc(C=NO[C@H](C)c2cn([C@@H]3COC[C@H]3O)nn2)cc1 | not met
Cc1ccc(S(=O)(=O)OC[C@H]2CN3[C@H](c4ccc(Br)cc4)[C@@H](C)CC[C@H]3C(=O)O2)cc1 | met
COC(=O)[C@@H]1CC[C@H](C)[C@@H](c2ccc(C)cc2)N1C(=O)c1ccc(C=NO[C@H](C)c2cn([C@H](CO)Cc3ccccc3)nn2)cc1 | met
O=C1[C@H]2[C@H]3[C@H](O)[C@H](O)CC(=NOC[C@@H](O)COCc4ccco4)[C@H]3CC[C@H]2C(=O)N1Cc1ccccc1 | met

Next up:
Asked: Reported z-score at or above -0.09? COC(=O)[C@H](C)NC(=O)CCC1CC(OC(=O)NCCc2ccc(F)cc2)CC2(CCCC(COC(=O)NCc3cccc(C(F)(F)F)c3)O2)O1 (some centres not stated)
Given back: not met

----------
Experiment: small-molecule binders of probe aNOTCH3, primary screen, biochemical, small-molecule microarray, 635/667 nm fluorescence (AID 1120);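 further: probe is a biotin-tagged antibody raised against NOTCH3 rather than NOTCH3 protein; score merges spot fluorescence near 667 nm with spot signal to noise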
Settings: higher = more signal
Recorded composite z-score, one value per entry.
Give a plain numeric answer without units written out.

molecule | composite z-score
C=CC[C@@H]1C=C[C@H](ON=C(C)CCC(=O)OC[C@H]2O[C@H](C#Cc3ccccc3)C=C[C@@H]2Oc2ccc(C)cc2)[C@@H](CO)O1 | -0.0898
CO[C@@H]1COC(=O)[C@H](CCSC)NC(=O)CC=C[C@@H](C)COC(=O)[C@H](C)NC(=O)CC=C[C@H]1C | 0.187
CCC1=NOC(CCC2CC(OC(=O)NCc3cccc4c3OCO4)CC3(CCCC(COC(=O)NCCc4ccccc4OC)O3)O2)C1 (stereo not given) | 0.134

Asked: Query (molecule): `CCCCC#C[C@@H]1C=C[C@H](Oc2cc(OC)c(OC)c(OC)c2)[C@@H](COC(=O)OCC)O1` ; field requested: composite z-score
Given back: -0.128

Asked: Then what about the molecule `COC(=O)CC=C[C@@H](C)[C@@H](C=NO[C@@H](C)c1cn([C@H](CO)Cc2ccccc2)nn1)OC` ?
Given back: -0.0069

Asked: Then what about the molecule `CO[C@@H]1COC(=O)[C@@H]2CCCN2C(=O)[C@@H](C)COC(=O)CC=C[C@H]1C` ?
Given back: -0.0362

Asked: Then what about the molecule `O=C1[C@H]2[C@H]3[C@H](O)[C@H](O)CC(=NOC[C@@H](O)COCc4ccco4)[C@H]3CC[C@H]2C(=O)N1c1ccc(F)cc1F` ?
Given back: -0.291

Asked: Then what about the molecule `COc1cccc([C@H]2Oc3ccc(OC)cc3C(=NO[C@@H]3O[C@H](COC(C)=O)[C@@H](OC(C)=O)[C@H](OC(C)=O)[C@H]3OC(C)=O)[C@@H]2O)c1` ?
Given back: -0.0598

Asked: Then what about the molecule `CO[C@H]1COC(=O)[C@@H](C)COC(=O)[C@@H](OCc2ccccc2)C=C[C@@H]1C` ?
Given back: -0.103

Asked: Then what about the molecule `O=C(NN=C1C[C@@H](O)[C@@H](O)[C@@H]2[C@@H]3C(=O)N(C4CCCCC4)C(=O)[C@@H]3CC[C@@H]12)OCc1ccccc1` ?
Given back: -0.0873

Asked: Then what about the molecule `COC(=O)[C@@H]1CC[C@@H](C)[C@H](c2ccc(Br)cc2)N1` ?
Given back: -0.0111

Asked: Then what about the molecule CCOC(=O)[C@H](CC(C)C)NC(=O)CCC1CC(OC(=O)NCc2cccc3ccccc23)CC2(CCCC(COC(=O)NCc3cccc(C(F)(F)F)c3)O2)O1 (stereo not given in full) ?
Given back: -0.0113

Asked: Then what about the molecule `COC(=O)C1=C(C)N(Cc2ccccc2)[C@]23O[C@](C(=O)OC)(C(=O)N2[C@@H]1c1ccccc1)C(C(=O)OC)=C3C(=O)OC` ?
Given back: 0.201

----------
Test system: wheat germ agglutinin (Triticum aestivum), Alexa647-labelled
Assay: wheat germ agglutinin binders on compound microarrays, profiling panel, artefact control for SMM control-protein annotation, biochemical, small-molecule microarray, 635/667 nm fluorescence (AID 1140);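 further: score merges 667 nm feature emission with signal to noise over triplicate slides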
Conditions: WGA-A647 binding, 635 nm fluorescence, higher = more signal
Classification by composite z-score | ranges: b0 (below -0.4), b1 (-0.4 to below 0.2), b2 (0.2 or more)

Some solved entries appear below for comparison.
compound | target_or_test_system | label
CCc1cc2c(nc1CC)CCN(CCC(C)=NOC[C@H]1O[C@H](c3ccccc3)C=C[C@@H]1Oc1ccc(OC)cc1)C2 | wheat germ agglutinin (Triticum aestivum), Alexa647-labelled | b1
COC(=O)[C@@H]1CC[C@H](C)[C@@H](c2ccc(C)cc2)N1C(=O)c1ccc(C=NO[C@@H](C)c2cn([C@H](CO)Cc3ccccc3)nn2)cc1 | wheat germ agglutinin (Triticum aestivum), Alexa647-labelled | b1
CO[C@H]1COC(=O)CC=C[C@H](C)COC(=O)[C@@H](C)NC(=O)CC=C[C@@H]1C | wheat germ agglutinin (Triticum aestivum), Alexa647-labelled | b0
CCOC(=O)NN=C1C[C@@H](O)[C@@H](O)[C@@H]2[C@@H]3C(=O)N([C@@H](C)c4ccccc4)C(=O)[C@@H]3CC[C@H]12 | wheat germ agglutinin (Triticum aestivum), Alexa647-labelled | b1

Asked: Sort into band: `CO[C@H](C1CCCCC1)[C@H](C)C=CCC(=O)OCCCc1ccccc1`
Given back: b0

Asked: Then what about the compound `Cc1ccc(S(=O)(=O)N[C@H]2COC(=O)CC=C[C@@H](C)COC(=O)CC=C[C@@H]2C)cc1` ?
Given back: b0

Asked: Then what about the compound `COC(=O)[C@@H]1CC[C@H](C)[C@@H](c2ccc(C)cc2)N1C(=O)c1ccc(C=NO[C@H](C)c2cn([C@H](CO)Cc3ccccc3)nn2)cc1` ?
Given back: b2

Asked: Then what about the compound `CO[C@@H]1COC(=O)[C@H](CCSC)NC(=O)CC=C[C@@H](C)COC(=O)[C@H](C)NC(=O)CC=C[C@H]1C` ?
Given back: b0

Asked: Then what about the compound `C#CCCCON=C1C[C@@H](O)[C@@H](O)[C@@H]2[C@@H]3C(=O)N(CC)C(=O)[C@@H]3CC[C@@H]12` ?
Given back: b1

Asked: Then what about the compound `CC(C)=CCCC(C)=CCON=C1C[C@@H](O)[C@@H](O)[C@@H]2[C@@H]3C(=O)N(c4ccc(F)cc4F)C(=O)[C@@H]3CC[C@H]12` ?
Given back: b2

Asked: Then what about the compound `COC(=O)[C@@H]1CC[C@H](C)[C@@H](c2ccc(C)cc2)N1C(=O)c1ccc(C=NO[C@@H]2O[C@H](COC(C)=O)[C@@H](OC(C)=O)[C@H](OC(C)=O)[C@H]2OC(C)=O)cc1` ?
Given back: b2

Asked: Then what about the compound `COc1ccc(COC(=O)NN=C2C[C@@H](O)[C@@H](O)[C@@H]3[C@@H]4C(=O)N(c5ccc(F)cc5F)C(=O)[C@@H]4CC[C@H]23)cc1` ?
Given back: b2

Asked: Then what about the compound `O=C1[C@H]2[C@H]3[C@H](O)[C@H](O)CC(=NOC[C@@H](O)COCc4ccco4)[C@H]3CC[C@H]2C(=O)N1Cc1ccccc1` ?
Given back: b0

Asked: Then what about the compound `CO[C@H]1COC(=O)CCC[C@@H](C)[C@H](OC)COC(=O)[C@@H]2CCCN2C(=O)CC=C[C@@H]1C` ?
Given back: b1

----------
Recorded composite z-score, one value per entry.
Test: binders from COS7 lysate, DM2A8 probe, primary screen, torsin A project, cell lysate, small-molecule microarray, fluorescence 635/667 (AID 1065)
Details: higher = more signal, COS7 lysate expressing mutant human TOR1A
Give a plain numeric answer without units written out.

Illustrative cases are given below, each with its answer.
compound | composite z-score
C=CC[C@@H]1C=C[C@H](ON=C(C)CCC(=O)OC[C@H]2O[C@H](C#Cc3ccccc3)C=C[C@@H]2Oc2ccc(C)cc2)[C@@H](CO)O1 | 0.692
COc1ccc(COC(=O)NN=C2C[C@@H](O)[C@@H](O)[C@@H]3[C@@H]4C(=O)N(c5cccc(Oc6ccccc6)c5)C(=O)[C@@H]4CC[C@@H]23)cc1 | -0.107
CC(C)(C)N1C(=O)[C@H]2[C@H]3[C@H](O)[C@H](O)CC(=O)[C@@H]3CC[C@H]2C1=O | 0.0227

Asked: Query (compound): `COC(=O)CC=C[C@@H](C)[C@@H](C=NO[C@@H](C)c1cc(-c2c(C)cc(C)cc2C)no1)NS(=O)(=O)c1ccc(C)cc1` ; field requested: composite z-score
Given back: -0.498
